# Assayed system: sEH (Homo sapiens)
# Sequence (P34913 whole entry, species assumed): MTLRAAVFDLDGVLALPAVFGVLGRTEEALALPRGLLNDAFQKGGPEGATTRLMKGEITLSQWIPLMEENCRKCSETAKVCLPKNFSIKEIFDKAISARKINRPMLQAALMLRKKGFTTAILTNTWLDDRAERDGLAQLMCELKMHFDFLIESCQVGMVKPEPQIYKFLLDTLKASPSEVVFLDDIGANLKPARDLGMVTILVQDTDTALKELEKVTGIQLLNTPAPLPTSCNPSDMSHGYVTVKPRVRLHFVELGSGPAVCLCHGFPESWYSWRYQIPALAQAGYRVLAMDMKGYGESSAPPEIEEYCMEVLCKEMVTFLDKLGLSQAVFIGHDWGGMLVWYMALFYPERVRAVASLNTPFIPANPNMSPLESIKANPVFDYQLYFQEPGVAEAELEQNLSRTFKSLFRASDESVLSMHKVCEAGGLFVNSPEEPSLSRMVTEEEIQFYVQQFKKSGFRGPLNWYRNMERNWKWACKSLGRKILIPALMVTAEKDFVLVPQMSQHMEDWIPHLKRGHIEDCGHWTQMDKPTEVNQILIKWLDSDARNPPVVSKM
# Protocol summary: sEH inhibition, fluorescent assay with CMNPC substrate (percent inhibition and IC50)
# Type: biochemical
# Condition parameters: procedure similar to the percent inhibition procedure
compounds and their reported pIC50
The read-out pIC50 is expressed as -log10 of concentration in moles per litre.

CC(C)OC(=O)N1CCC(NC(=O)Nc2ccc(C(F)(F)F)cc2)CC1    9.10
CC(C)S(=O)(=O)N1CCC(NC(=O)Nc2ccc(OC(F)(F)F)cc2)CC1    8.80
O=C(NC1CCCCC1)NC1CCN(C(=O)c2ccccn2)CC1    8.28
CC(=O)N1CCC(NC(=O)Nc2cccc(C(F)(F)F)c2)CC1    8.00
O=C(Nc1ccc(C(F)(F)F)cc1)Nc1ccc(S(=O)(=O)c2ccccc2)cc1    8.42
CC(C)OC(=O)N1CCC(NC(=O)Nc2ccc(OC(F)(F)F)cc2)CC1    8.68
O=C(Nc1ccc(C(F)(F)F)cc1)NC1CCN(c2ccc(C(F)(F)F)cn2)CC1    8.12
O=C(Nc1ccc(C(F)(F)F)cc1)Nc1ccc(Oc2ccccc2)nc1    8.15

[in] I'm curious: which pIC50 was measured for CC(=O)NC1CCC(NC(=O)Nc2ccc(C(F)(F)F)cc2)CC1 (stereo not shown) tested on sEH (Homo sapiens)?
[out] 8.21

[in] I'm curious: which pIC50 was measured for "CC(C)(C)CC(=O)N1CCC(NC(=O)Nc2ccc(C(F)(F)F)cc2)CC1" tested on sEH (Homo sapiens)?
[out] 9.10

----------
# Assayed system: sEH (Homo sapiens)
# Protocol summary: sEH enzymatic assay (Compound 6)
# Assay type: biochemical
# Condition parameters: read-out: IC50 for inhibition of sEH, enzymatic assay
Measurement label: pIC50
The read-out pIC50 is expressed as -log10 of concentration in moles per litre.

[in] I'm curious: which pIC50 was measured for "O=C(Nc1ccc(OC(F)(F)F)cc1)NC1CCN(C(=O)c2cccnc2)CC1" tested on sEH (Homo sapiens)?
[out] 8.80

----------
# Assayed system: sEH (Homo sapiens)
# Protocol summary: sEH cell based assay (Compound 6)
# Condition parameters: read-out: IC50 for inhibition of sEH, cell based assay
Measurement label: IC50 (nM)
// note: answer is a bare numeric in nM

[in] Data request, read-out IC50, for O=C(Nc1ccc(OC(F)(F)F)cc1)NC1CCN(C(=O)c2cccnc2)CC1 [Compound 6]
[out] 8.9
